B1: POU domain, class 2, transcription factor 1, residues 285 to 354; numbered along this chain, P14859 (parent)
chain: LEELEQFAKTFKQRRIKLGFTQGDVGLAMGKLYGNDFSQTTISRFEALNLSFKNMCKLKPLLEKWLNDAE

# Variants of: B1
# measurement_notes: abundance fitness (aPCA) (normalised: wild type 0, dead -1); higher = more abundant; growth selection in yeast, the domain comes from the species named
# test_conditions: Homo sapiens
measured_attribute: abundance fitness

Study these solved cases before continuing.
D68Q	0.001
Y33S	-0.039
D68F	-0.011

Now examine the next entry.
Give its abundance fitness value. Item: "T40P"
-0.032
